Target: Full-length wild type HIV-1 integrase (SF1) (Human immunodeficiency virus type 1 group M subtype B, UniProt P04585)
Construct: made in house; host or cells: E. coli BL21 (DE3), pET24a vector
Test: Integrase strand-transfer scintillation proximity assay
Format: biochemical
Conditions: integrase strand-transfer SPA; read-out: IC50
Below is a list of entries, each paired with its recorded pIC50 value.
Worth noting: pIC50 values are minus log10 of concentrations stated in mol/L.

For orientation, consider the following solved cases.
>  <COMPOUND_STRUCTURE_STRING>
O=c1c2ncc3c(c(CN4CCN(CCN5CCOCC5)CC4)cn3Cc3ccc(F)cc3)c2ccn1O

>  <pIC50>
7.66

$$$$
>  <COMPOUND_STRUCTURE_STRING>
CC(C)(C)OC(=O)N1CCC(COCc2cn(Cc3ccc(F)cc3)c3cnc4c(=O)n(O)ccc4c23)CC1

>  <pIC50>
6.97

$$$$
>  <COMPOUND_STRUCTURE_STRING>
O=c1c2ncc3c(c(COC4CCOCC4)cn3Cc3ccc(F)cc3)c2ccn1O

>  <pIC50>
7.64

$$$$
>  <COMPOUND_STRUCTURE_STRING>
Cc1cccc(CNCc2cn(Cc3ccc(F)cc3)c3cnc4c(=O)n(O)ccc4c23)c1

>  <pIC50>
7.38

$$$$

For the compound shown here, `O=c1c2ncc3c(c(CN4CCc5ccccc5C4)cn3Cc3ccc(F)cc3)c2ccn1O` , give the reported pIC50.
7.40

For the compound shown here, `O=c1c2ncc3c(ccn3Cc3ccc(F)cc3)c2ccn1O` , give the reported pIC50.
7.70

For the compound shown here, `O=c1c2ncc3c(c(CN4CCC(O)CC4)cn3Cc3ccc(F)cc3)c2ccn1O` , give the reported pIC50.
8.15

For the compound shown here, `CCCCCN(C)Cc1cn(Cc2ccc(F)cc2)c2cnc3c(=O)n(O)ccc3c12` , give the reported pIC50.
8.22

###

Molecular target: Full-length wild type HIV-1 integrase (SF1) (Human immunodeficiency virus type 1 group M subtype B, UniProt P04585)
Construct: made in house; host or cells: E. coli BL21 (DE3), pET24a vector
Test: Integrase strand-transfer scintillation proximity assay
Type: biochemical
Settings: integrase strand-transfer SPA; read-out: IC50
Below is a list of entries, each paired with its recorded IC50 value.
Field format: number, assumed nM, no unit text.

For orientation, consider the following solved cases.
>  <COMPOUND>
O=C1CN(Cc2cn(Cc3ccc(F)cc3)c3cnc4c(=O)n(O)ccc4c23)CCN1 [Example 6]

>  <OBSERVED_MEASUREMENT>
7

$$$$
>  <COMPOUND>
COCCOCc1cn(Cc2ccc(F)cc2)c2cnc3c(=O)n(O)ccc3c12 [Example 36]

>  <OBSERVED_MEASUREMENT>
20

$$$$
>  <COMPOUND>
O=C(NCCc1cnccn1)c1cn(Cc2ccc(F)cc2)c2cnc3c(=O)n(O)ccc3c12 [Example 28]

>  <OBSERVED_MEASUREMENT>
12

$$$$

Let us move to another entry and its IC50.
For the compound shown here, O=c1c2ncc3c(c(CN4CCCCC4CO)cn3Cc3ccc(F)cc3)c2ccn1O (stereo not shown) [Example 49] , give the reported IC50.
13

###

Biological target: Full-length wild type HIV-1 integrase (SF1) (Human immunodeficiency virus type 1 group M subtype B, UniProt P04585)
Construct: made in house; host or cells: E. coli BL21 (DE3), pET24a vector
Test: Integrase strand-transfer scintillation proximity assay
Format: biochemical
Settings: integrase strand-transfer SPA; read-out: IC50
With a cut-off of 10 nM, any IC50 strictly below it is called 1 (yes); any IC50 meeting it or above is called 0 (no).

// below: answered compounds
>  <COMPOUND>
O=c1c2ncc3c(c(CNCc4ccccn4)cn3Cc3ccc(F)cc3)c2ccn1O

>  <DISCRETE_LABEL>
0 (no)

$$$$
>  <COMPOUND>
COCCOCc1cn(Cc2ccc(F)cc2)c2cnc3c(=O)n(O)ccc3c12 [Example 9]

>  <DISCRETE_LABEL>
0 (no)

$$$$
>  <COMPOUND>
O=c1c2ncc3c(c(COCCOC4CCCCC4)cn3Cc3ccc(F)cc3)c2ccn1O

>  <DISCRETE_LABEL>
0 (no)

$$$$
>  <COMPOUND>
O=C(NCC(F)(F)F)c1cn(Cc2ccc(F)cc2)c2cnc3c(=O)n(O)ccc3c12

>  <DISCRETE_LABEL>
0 (no)

$$$$
>  <COMPOUND>
CCN1CCN(Cc2cn(Cc3ccc(F)cc3)c3cnc4c(=O)n(O)ccc4c23)CC1

>  <DISCRETE_LABEL>
0 (no)

$$$$

Hi there! Is IC50 for `O=C1CCN(Cc2cn(Cc3ccc(F)cc3)c3cnc4c(=O)n(O)ccc4c23)CCN1` below 10 nM, do you know?
1 (yes)

Hi there! Is IC50 for `O=c1c2ncc3c(c(COCCc4ccccn4)cn3Cc3ccc(F)cc3)c2ccn1O` below 10 nM, do you know?
0 (no)

Hi there! Is IC50 for `CN(C)Cc1cn(Cc2ccc(F)cc2)c2cnc3c(=O)n(O)ccc3c12` below 10 nM, do you know?
1 (yes)

Hi there! Is IC50 for O=C1c2ncc3c(ccn3Cc3ccc(F)cc3)c2CCCN1O [Example 3] below 10 nM, do you know?
0 (no)

Hi there! Is IC50 for `NC(=O)[C@@H]1CCCN1S(=O)(=O)c1cn(Cc2ccc(F)cc2)c2cnc3c(=O)n(O)ccc3c12` below 10 nM, do you know?
1 (yes)

Hi there! Is IC50 for `CN1CCN(Cc2cn(Cc3ccc(F)cc3)c3cnc4c(=O)n(O)ccc4c23)CC1` below 10 nM, do you know?
0 (no)

Hi there! Is IC50 for `CN(Cc1cnn(-c2ccccc2)c1)Cc1cn(Cc2ccc(F)cc2)c2cnc3c(=O)n(O)ccc3c12` below 10 nM, do you know?
0 (no)

Hi there! Is IC50 for `O=c1c2ncc3c(c(S(=O)(=O)NCc4ccc(F)cc4)cn3Cc3ccc(F)cc3)c2ccn1O` below 10 nM, do you know?
0 (no)

Hi there! Is IC50 for `O=C(NCc1ccccn1)c1cn(Cc2ccc(F)cc2)c2cnc3c(=O)n(O)ccc3c12` below 10 nM, do you know?
0 (no)

Hi there! Is IC50 for `CCCCc1cc2c(ncc3c2ccn3Cc2ccc(F)cc2)c(=O)n1O` below 10 nM, do you know?
0 (no)

Hi there! Is IC50 for `NC(=O)[C@H]1CCCN1Cc1cn(Cc2ccc(F)cc2)c2cnc3c(=O)n(O)ccc3c12` below 10 nM, do you know?
0 (no)

Hi there! Is IC50 for `O=c1c2ncc3c(c(CNC4(CO)CCCC4)cn3Cc3ccc(F)cc3)c2ccn1O` below 10 nM, do you know?
0 (no)

Hi there! Is IC50 for `O=C1c2ncc3c(ccn3Cc3ccc(F)cc3)c2CCN1O` below 10 nM, do you know?
0 (no)

Hi there! Is IC50 for `O=C1CCCN1CC1(O)CCN(Cc2cn(Cc3ccc(F)cc3)c3cnc4c(=O)n(O)ccc4c23)CC1` below 10 nM, do you know?
0 (no)
